Measured desArg of individual entries
molecular target: pre-pro-insulin glargine
result-type: desArg (area %)

protein	result-type	relation-operator	measurement
trypsin variant SEQ ID NO: 88 (protein) IVGGYTCAANSIPYQVSLNSGSHRCGGSLINSQWVVSAAHCYKPRIQVRLGEHNIHVLEGNEQFINAAKIITHPNFNPNTLDNDIMLIKLSSPATLNSHVATVSLPTSCAAAGTECLISGWGNTSSSGSSMPSLLQCLKAPVLSDSSCKSSYPGQITGNMICVGFLEGGKDSCQGDSGGPVVCNGQLQGIVSSGYGCAQKNKPGVYTKVCNYVNWIQQTIAAN	desArg	=	0.7
trypsin variant SEQ ID NO: 73 (protein) IVGGYTCAANSIPYQVSLNSGSHRCGGSLINSQWVVSAAHCYKSRIQVRLGEHNIDVLEGNEQFINAAKIITHPNFNANTLDNDIMLIKLSSPATLNSRVATVSLPRSCAAAGTECLISGWGNTKSSGSSYPSLLQCLKAPVLSDSSCKSSYPGQITGNMICVGFLEGGKDACQGDSGGPVVCNGQLQGIVSSGYGCAQKNKPGVYTKVCNYVNWIQQTIAAN	desArg	<	0.5
trypsin variant SEQ ID NO: 101 (protein) IVGGYTCAANSIPYQVSLNSGSHRCGGSLINSQWVVSAAHCYKSRIQVRLGEHNIHVLEGNEQFINAAKIITHPNFNPNTLDNDIMLIKLSSPATLNSNVATVSLPTSCAAAGTECLISGWGNTSSSGSSMPSLLQCLKAPVLSDSSCKSSYPGQITGNMICVGFLEGGADACQGDSGGPVVCNGQLQGIVSSGYGCAQKNKPGVYTKVCNYVNWIQQTIAAN	desArg	=	1
trypsin variant SEQ ID NO: 98 (protein) IVGGYTCAANSIPYQVSLNSGSHRCGGSLINSQWVVSAAHCYKPRIQVRLGEHNIHVLEGNEQFINAAKIITHPNFNPNTLDNDIMLIKLSSPATLNSAVATVSLPTSCAAAGTECLISGWGNTASSGSSMPSLLQCLKAPVLSDSSCKSSYPGQITGNMICVGFLEGGADSCQGDSGGPVVCNGQLQGIVSSGYGCAQKNKPGVYTKVCNYVNWIQQTIAAN	desArg	=	0.9
trypsin variant SEQ ID NO: 92 (protein) IVGGYTCAANSIPYQVSLNSGSHRCGGSLINSQWVVSAAHCYKPRIQVRLGEHNIHVLEGNEQFINAAKIITHPNFNPNTLDNDIMLIKLSSPATLNSAVATVSLPTSCAAAGTECLISGWGNTCSSGSSMPSLLQCLKAPVLSDSSCKSSYPGQITGNMICVGFLEGGKDACQGDSGGPVVCNGQLQGIVSSGYGCAQKNKPGVYTKVCNYVNWIQQTIAAN	desArg	=	0.9
trypsin variant SEQ ID NO: 90 (protein) IVGGYTCAANSIPYQVSLNSGSHRCGGSLINSQWVVSAAHCYKPRIQVRLGEHNIHVLEGNEQFINAAKIITHPNFNPNTLDNDIMLIKLSSPATLNSHVATVSLPTSCAAAGTECLISGWGNTASSGSSMPSLLQCLKAPVLSDSSCKSSYPGQITGNMICVGFLEGGKDSCQGDSGGPVVCNGQLQGIVSSGYGCAQKNKPGVYTKVCNYVNWIQQTIAAN	desArg	=	0.9
trypsin variant SEQ ID NO: 19 (protein) IVGGYTCAANSIPYQVSLNSGSHRCGGSLINSQWVVSAAHCYKSRIQVRLGEHNIDVLEGNEQFINAAKIITHPNFNGNTLDNDIMLIKLSSPATLNSRVATVSLPRSCAAAGTECLISGWGNTCSSGSSYPSLLQCLKAPVLSDSSCKSSYPGQITGNMICVGFLEGGKDACQGDSGGPVVCNGQLQGIVSSGYGCAQKNKPGVYTKVCNYVNWIQQTIAAN	desArg	<	0.5
trypsin variant SEQ ID NO: 18 (protein) IVGGYTCAANSIPYQVSLNSGSHRCGGSLINSQWVVSAAHCYKSRIQVRLGEHNIDVLEGNEQFINAAKIITHPNFNGNTLDNDIMLIKLSSPATLNSRVATVSLPRSCAAAGTECLISGWGNTSSSGSSYPSLLQCLKAPVLSDSSCKSSYPGQITGNMICVGFLEGGKDACQGDSGGPVVCNGQLQGIVSSGYGCAQKNKPGVYTKVCNYVNWIQQTIAAN	desArg	<	0.5
trypsin variant SEQ ID NO: 10 (protein) IVGGYTCAANSIPYQVSLNSGSHRCGGSLINSQWVVSAAHCYKSRIQVRLGEHNIDVLEGNEQFINAAKIITHPNFNGNTLDNDIMLIKLSSPATLNSTVATVSLPRSCAAAGTECLISGWGNTKSSGSSYPSLLQCLKAPVLSDSSCKSSYPGQITGNMICVGFLEGGKDACQGDSGGPVVCNGQLQGIVSSGYGCAQKNKPGVYTKVCNYVNWIQQTIAAN	desArg	<	0.5
trypsin variant SEQ ID NO: 56 (protein) IVGGYTCAANSIPYQVSLNSGSHRCGGSLINSQWVVSAAHCYKSRIQVRLGEHNINVLEGNEQFINAAKIITHPNFNGNTLDNDIMLIKLSSPATLNSRVATVSLPRSCAAAGTECLISGWGNTKSSGSSYPSLLQCLKAPVLSDSSCKSSYPGQITGNMICVGFLEGGKDACQGDSGGPVVCNGQLQGIVSSGYGCAQKNKPGVYTKVCNYVNWIQQTIAAN	desArg	<	0.5
